- Assay: Heating experiments and VT-XRPD (N2 drying, heating, cooling back): form change
- Type: physicochemical
- Measurement Context: solid form by XRPD after heating; cells marked *, **, # have footnotes that are not shown
Where a name gives a salt, the structure may show the parent alone.

Molecule	Form after heating
COCC[C@H]1CC2CN3CCc4c([nH]c5ccccc45)[C@](C(=O)OC)(C2)[C@H]13 [HCl salt Type G, 18-methoxycoronaridine]	HCl salt Type A**
COCC[C@H]1CC2CN3CCc4c([nH]c5ccccc45)[C@](C(=O)OC)(C2)[C@H]13 [HCl salt Type E, 18-methoxycoronaridine]	HCl salt Type A**
COCC[C@H]1CC2CN3CCc4c([nH]c5ccccc45)[C@](C(=O)OC)(C2)[C@H]13 [HCl salt Type B, 18-methoxycoronaridine]	HCl salt Type A
COCC[C@H]1CC2CN3CCc4c([nH]c5ccccc45)[C@](C(=O)OC)(C2)[C@H]13 [HCl salt Type C, 18-methoxycoronaridine]	HCl salt Type A

---

- Assay: Heating experiments and VT-XRPD (N2 drying, heating, cooling back): form change
- Assay type: physicochemical
- Measurement Context: heating to 100° C.
Measured Metric: form change after heating (XRPD/VT-XRPD)

Molecule	Result
COCC[C@H]1CC2CN3CCc4c([nH]c5ccccc45)[C@](C(=O)OC)(C2)[C@H]13 [besylate Type B, 18-methoxycoronaridine]	no obvious form change
COCC[C@H]1CC2CN3CCc4c([nH]c5ccccc45)[C@](C(=O)OC)(C2)[C@H]13 [mesylate Type A, 18-methoxycoronaridine]	no obvious form change

---

- Assay: Heating experiments and VT-XRPD (N2 drying, heating, cooling back): form change
- Assay type: physicochemical
- Measurement Context: N2-drying for 20 min at 30° C.
Structures can show the parent of a compound that is named as a salt.
Measured Metric: form change after N2 drying (VT-XRPD)

Compound	Measured Metric	Result
COCC[C@H]1CC2CN3CCc4c([nH]c5ccccc45)[C@](C(=O)OC)(C2)[C@H]13 [mesylate Type A, 18-methoxycoronaridine]	form change after N2 drying (VT-XRPD)	no form change
COCC[C@H]1CC2CN3CCc4c([nH]c5ccccc45)[C@](C(=O)OC)(C2)[C@H]13 [sulfate Type A, 18-methoxycoronaridine]	form change after N2 drying (VT-XRPD)	no obvious form change
COCC[C@H]1CC2CN3CCc4c([nH]c5ccccc45)[C@](C(=O)OC)(C2)[C@H]13 [HCl salt Type P, 18-methoxycoronaridine]	form change after N2 drying (VT-XRPD)	no form change
COCC[C@H]1CC2CN3CCc4c([nH]c5ccccc45)[C@](C(=O)OC)(C2)[C@H]13 [HCl salt Type M, 18-methoxycoronaridine]	form change after N2 drying (VT-XRPD)	no form change
COCC[C@H]1CC2CN3CCc4c([nH]c5ccccc45)[C@](C(=O)OC)(C2)[C@H]13 [HCl salt Type Q, 18-methoxycoronaridine]	form change after N2 drying (VT-XRPD)	no form change

Now consider the entry below.
(Q) Would you kindly share the measured form change after N2 drying (VT-XRPD) for COCC[C@H]1CC2CN3CCc4c([nH]c5ccccc45)[C@](C(=O)OC)(C2)[C@H]13 [besylate Type B, 18-methoxycoronaridine] ?
(A) no obvious form change
